Tested on: UACC-62 melanoma
protocol.details: NCI tumour cell line growth inhibition, 48 h
measured.quantity: TGI (µM)

compound=O=[N+]([O-])c1cc(Cl)c2[nH]c3c(Cl)cc([N+](=O)[O-])cc3c2c1 measured_quantity=TGI unit_of_measurement=µM value_prefix=> numeric_result=100
compound="O=C(O)C(O)C(O)C(=O)O (configuration not stated)" measured_quantity=TGI unit_of_measurement=µM value_prefix=> numeric_result=100
compound=CCOC(=O)Nc1nc2ccc(OC)cc2s1 measured_quantity=TGI unit_of_measurement=µM value_prefix=> numeric_result=100
compound=O=C(Nc1cc(C(F)(F)F)ccc1Cl)c1ccc(NC2=C(Cl)C(=O)N(Cc3ccccc3)C2=O)cc1 measured_quantity=TGI unit_of_measurement=µM value_prefix== numeric_result=38.9
compound=NC1=C(NC(=O)Cc2ccccc2F)C(=O)c2ccccc2C1=O measured_quantity=TGI unit_of_measurement=µM value_prefix=> numeric_result=100
compound=CN(C)CCNc1ccc(CO)c2sc3ccc(O)cc3c(=O)c12 measured_quantity=TGI unit_of_measurement=µM value_prefix== numeric_result=7.75
compound=COc1ccccc1C#Cc1ccccc1C#CCCCCO measured_quantity=TGI unit_of_measurement=µM value_prefix== numeric_result=30.7

---

Tested on: UACC-62 melanoma
protocol.details: NCI tumour cell line growth inhibition, 48 h
The compounds listed here are annotated with their TGI.
measured.quantity: TGI (µM)

structure_as_smiles=O=c1c2cc(F)ccc2sc2c(N3CCNCC3)nc3ccc(F)cc3c12 measured_quantity=TGI unit_of_measurement=µM value_prefix== numeric_result=3.19
structure_as_smiles=O=CNNC(=O)Nc1cccc2ccccc12 measured_quantity=TGI unit_of_measurement=µM value_prefix=> numeric_result=100
structure_as_smiles=CCOC(=O)c1[nH]c(Br)c(-c2ccc(OC)c(OC)c2)c1Br measured_quantity=TGI unit_of_measurement=µM value_prefix== numeric_result=22
structure_as_smiles=CCCCCCCCOC(=O)CC[C@@H](C)[C@H]1CC[C@H]2[C@@H]3[C@H](OC(=O)CCN)C[C@@H]4C[C@H](OC(=O)CCN)CC[C@]4(C)[C@H]3C[C@H](OC(=O)CCN)[C@]12C measured_quantity=TGI unit_of_measurement=µM value_prefix== numeric_result=12.7

---

Tested on: IGROV1 ovarian
protocol.details: NCI tumour cell line growth inhibition, 48 h
measured.quantity: TGI

molecule="COc1ccc(C2OC(=O)c3ccc4ccccc4c32)c(C)c1 (stereo not drawn)" measured_quantity=TGI result="> 67.8 µM"
molecule=COc1cc2ncn(-c3cc(OCc4ccccc4C(F)(F)F)c(C(=O)N(C)C)s3)c2cc1OC measured_quantity=TGI result="> 25 µM"
molecule=C=C(C(=O)O)[C@@H]1C[C@@H]2O[C@H]1[C@@H](O)[C@@H](C)CCCC(C)=CCC[C@@]2(C)O measured_quantity=TGI result="> 100 µM"

---

System: A549 NSCLC
protocol.details: NCI tumour cell line growth inhibition, 48 h
measured.quantity: TGI (µM)

structure_as_smiles=COc1ccccc1C#Cc1ccccc1C#CCCCCO value_prefix== numeric_result=36.5
structure_as_smiles=Cc1nc(CC#N)n[nH]1 value_prefix=> numeric_result=100
structure_as_smiles=COc1ccc(NC(=O)/C(=C/c2ccccc2)C(C)=O)cc1 value_prefix== numeric_result=54.2

---

Tested on: M14 melanoma
protocol.details: NCI tumour cell line growth inhibition, 48 h
measured.quantity: TGI

structure_as_smiles=COc1ccc2c(=O)cc(-c3ccccc3)[nH]c2c1 tested_target="M14 melanoma" result="> 100 µM"
structure_as_smiles=C=CCn1c(C)nc2ccc(Nc3nc(Nc4ccc(F)cc4)nc4ccccc34)cc21 tested_target="M14 melanoma" result="14.2 µM"
structure_as_smiles=CC1=C(C(=O)CC(=O)C(=O)Nc2cc(C)ccc2C)Sc2ccccc2N1 tested_target="M14 melanoma" result="> 100 µM"

---

System: HL-60(TB) leukemia
protocol.details: NCI tumour cell line growth inhibition, 48 h
measured.quantity: TGI

molecule=CCNC(=O)COc1ccc(Br)cc1Br result="> 100 µM"
molecule=COc1cc2ncn(-c3cc(OCc4ccccc4C(F)(F)F)c(C(=O)N(C)C)s3)c2cc1OC result="> 25 µM"
molecule="O=C1CC(c2ccccc2)C2(C(=O)NC(=S)NC2=O)C(c2ccccc2)C1 (configuration not stated)" result="> 75 µM"
molecule="COc1cc(C(C)O)c(S(=O)(=O)CC(C)O)nn1 (configuration not stated)" result="> 100 µM"
molecule=O=C(Cc1nc2ccccc2c(=O)n1-c1ccccc1Cl)c1ccncc1 result="> 100 µM"
molecule=COc1cc(F)c(F)c(Nc2ccc(I)cc2F)c1NS(=O)(=O)C1(C[C@H](O)CO)CC1 result="> 10 µM"
molecule=Cn1c(C(=O)c2ccncc2)cc2ccccc21 result="> 100 µM"
molecule="CC[C@@]1(O)C(=O)OCc2c1cc1n(c2=O)Cc2c-1nc1ccccc1c2/C=N\\NC(=O)C1CCCN1 (some centres not stated)" result="> 100 µM"
molecule="COc1ccc(NC(=O)CC2SC(=Nc3ccccc3C)NC2=O)c([N+](=O)[O-])c1 (configuration not stated)" result="> 100 µM"
molecule=c1cc2c(s1)-c1sccc1C21OCCO1 result="> 100 µM"
molecule=O=C(O)Cc1ccc(Nc2nc3cc(C(F)(F)F)ccc3nc2C(=O)O)cc1 result="> 100 µM"
molecule=c1cc2c(cc1NC1=NCCO1)OCO2 result="> 100 µM"

---

Tested on: HOP-92 NSCLC
protocol.details: NCI tumour cell line growth inhibition, 48 h
Listed here are compounds together with their documented TGI.
measured.quantity: TGI

compound=CC[C@H](Nc1ncnc2nc[nH]c12)c1nc2cccc(F)c2c(=O)n1-c1ccccc1 measured_quantity=TGI result="> 60.4 µM"
compound=FC(F)(c1ccc2ncccc2c1)c1nnc2ccc(-c3ccncc3)nn12 measured_quantity=TGI result="> 100 µM"
compound="CC1/C=C/[C@@]2(C)CCC(C(C)(C)O)C2C(O)C[C@](C)(O)/C=C/C1 (stereo partly specified)" measured_quantity=TGI result="> 100 µM"
compound=Nc1[nH]nc(Nc2ccc(Cl)cc2)c1P(=O)(c1ccccc1)c1ccccc1 measured_quantity=TGI result="70.8 µM"
compound=Nc1ccccc1C#C/C=C\C#Cc1ccc(OCCCNC(=O)c2cc3ccccc3[nH]2)cc1 measured_quantity=TGI result="37.5 µM"
compound=COc1cc2c(cc1OC)C(=O)N(c1ccc(O)cc1)C2=O measured_quantity=TGI result="> 100 µM"
compound=C=C(C(=O)O)[C@@H]1C[C@@H]2O[C@H]1[C@@H](O)[C@@H](C)CCCC(C)=CCC[C@@]2(C)O measured_quantity=TGI result="> 100 µM"
compound="Cc1nc(N)nc2c1CCC(O)S2 (stereo unspecified)" measured_quantity=TGI result="12.3 µM"
compound=Cc1ccc(NC=O)c(-c2c(N)[nH]c(=S)[nH]c2=O)c1 measured_quantity=TGI result="> 100 µM"
compound="CC1=C[C@H]2c3c([nH]c4ccccc34)C(c3c[nH]c4ccccc34)[C@H]2CC1 (stereo partly specified)" measured_quantity=TGI result="5.34 µM"
compound="COc1cc(C2SCCCCCCCCCCSC(c3ccc(O)c(OC)c3)SCCCCCCCCCCS2)ccc1O (stereo unspecified)" measured_quantity=TGI result="> 100 µM"

---

Each record here notes measured GI50.
Tested on: A498 renal
protocol.details: NCI tumour cell line growth inhibition, 48 h
measured.quantity: GI50

compound=COc1cc2ncn(-c3cc(OCc4ccccc4C(F)(F)F)c(C(=O)N(C)C)s3)c2cc1OC result="4580 nM"
compound="CN(CCCCCl)P(=O)(OCCS(=O)(=O)CC(NC(=O)CCC(N)C(=O)O)C(=O)NC(C(=O)O)c1ccccc1)OCC1OC(n2ccc(N)nc2=O)C(F)(F)C1O (configuration not stated)" result="943 nM"
compound=CCCCCCCCOC(=O)CC[C@@H](C)[C@H]1CC[C@H]2[C@@H]3[C@H](OC(=O)CCN)C[C@@H]4C[C@H](OC(=O)CCN)CC[C@]4(C)[C@H]3C[C@H](OC(=O)CCN)[C@]12C result="23800 nM"
compound=CCNc1cc(-c2cccc(OC(F)(F)F)c2)nc2ccc(N3CCCC3)cc12 result="1070 nM"
compound=COc1cccc(/C(C#N)=C/c2nc3c(N4CCOCC4)nc(Cl)nc3n2C)c1 result="1490 nM"
compound=Cn1c(-c2c(N)n(Nc3cccc(Cl)c3)c3nc(C#N)c(C#N)nc23)nc2ccccc21 result="6560 nM"
compound="CC(=O)c1ccc2c(c1)C1C=CCC1[C@H](c1cc3c(cc1Br)OCO3)N2 (some centres not stated)" result="482 nM"

---

Overview of reported TGI across a group of compounds:
Test system: SNB-19 CNS
protocol.details: NCI tumour cell line growth inhibition, 48 h
measured.quantity: TGI

compound="COC(=O)CCC1=C(CC(=O)OC)C(C)(OC)N=C1NC(=O)OCc1ccccc1 (stereo not drawn)" tested_target="SNB-19 CNS" result="> 100 µM"
compound=Cc1nc(-c2ccccc2)n2nc(NCCCN3CCOCC3)ncc12 tested_target="SNB-19 CNS" result="> 25 µM"
compound="COC(=O)C1C(O)CCC2CN3CCc4c([nH]c5ccccc45)C3CC21 (stereo not drawn)" tested_target="SNB-19 CNS" result="> 100 µM"
